Test system: HCV replicon
Test: HCV replicon replication assay (NPT ELISA) in Huh-7 replicon-containing cells
Format: cell-based, Hepatitis C virus
Conditions: Hepatitis C virus, 72 h; inhibition of HCV replicon replication, Huh-7 HCV replicon-containing cells, three days
reported-property: EC50

Quick one: EC50 of CCOC(=O)C12CC1/C=C\CCCCC[C@H](N1CCCCC1)C(=O)N1C[C@H](Oc3cc(-c4ccccc4)nc4cc(OC)ccc34)C[C@H]1C(=O)N2 (some centres unmarked) ?
< 100 µM

Value lookup for EC50; key = C=CC1CC1(NC(=O)[C@@H]1C[C@@H](Oc2cc(-c3ccccc3)nc3cc(OC)ccc23)CN1C(=O)[C@H](C)N1CCCCC1)C(=O)OCC (some centres unmarked)
< 100 µM

What value of measured EC50 is listed for CCCC(NC(=O)C1C2CCCC2CN1C(=O)[C@@H](C)N1CCCCC1)C(=O)C(=O)NC1CC1 (some centres unmarked) ?
> 100 µM

Item CCCC(NC(=O)C1C2CCCC2CN1C(=O)C(c1ccccc1)N1CCCCC1)C(=O)C(=O)NC1CC1 (centres unmarked) has what recorded EC50?
< 100 µM

# get_value(readout='EC50', item= CCCC(NC(=O)C1C2CCCC2CN1C(=O)[C@H](C(C)C)N1CCCCC1)C(=O)C(=O)NC1CC1 (some centres unmarked) )
< 100 µM

Item under review: CCCC(NC(=O)C1C2CCCC2CN1C(=O)C(C)N1CCCCC1)C(=O)C(=O)NC1CC1 (centres unmarked) . Reported EC50?
< 100 µM

What EC50 value was documented for this compound, COc1ccc2c(O[C@@H]3C[C@H]4C(=O)NC5(C(=O)O)CC5/C=C\CCCCC[C@H](N5CCCCC5)C(=O)N4C3)cc(-c3ccccc3)nc2c1 (some centres unmarked) ?
< 100 µM

Query: EC50; subject: C=C[C@@H]1C[C@]1(NC(=O)[C@@H]1C[C@@H](Oc2cc(-c3ccccc3)nc3cc(OC)ccc23)CN1C(=O)[C@H](c1ccccc1)N1CCCCC1)C(=O)NS(=O)(=O)C1CC1
< 100 µM

Need EC50, item C=CC1CC1(NC(=O)[C@@H]1C[C@@H](Oc2cc(-c3ccccc3)nc3cc(OC)ccc23)CN1C(=O)[C@H](c1ccccc1)N1CCCCC1)C(=O)O (some centres unmarked)
> 100 µM

Which measured EC50 value corresponds to CCCC(NC(=O)C1C2CCCC2CN1C(=O)[C@H](C)N1CCCCC1)C(=O)C(=O)NC1CC1 (some centres unmarked) ?
< 100 µM

Return reported EC50; argument: C=CC1CC1(NC(=O)[C@@H]1C[C@@H](Oc2cc(-c3ccccc3)nc3cc(OC)ccc23)CN1C(=O)[C@H](C)N1CCCCC1)C(=O)O (some centres unmarked)
> 100 µM

Any idea what its EC50 is? The compound is C=CC1CC1(NC(=O)[C@@H]1C[C@@H](Oc2cc(-c3ccccc3)nc3cc(OC)ccc23)CN1C(=O)[C@H](C1CCCCC1)N1CCCCC1)C(=O)O (some centres unmarked)
< 100 µM

Entry CCCC(NC(=O)C1C2CCCC2CN1C(=O)[C@@H](NC(=O)OC(C)(C)C)C(C)(C)C)C(=O)C(=O)NC1CC1 (some centres unmarked) has what EC50?
< 100 µM

Given the compound C=CC1CC1(NC(=O)[C@@H]1C[C@@H](Oc2cc(-c3ccccc3)nc3cc(OC)ccc23)CN1C(=O)[C@@H](N1CCCCC1)C(C)(C)C)C(=O)O (some centres unmarked) , what is its reported EC50?
< 100 µM
